# Study Target: UniProt Q08345
# Sequence (Q08345 19-913): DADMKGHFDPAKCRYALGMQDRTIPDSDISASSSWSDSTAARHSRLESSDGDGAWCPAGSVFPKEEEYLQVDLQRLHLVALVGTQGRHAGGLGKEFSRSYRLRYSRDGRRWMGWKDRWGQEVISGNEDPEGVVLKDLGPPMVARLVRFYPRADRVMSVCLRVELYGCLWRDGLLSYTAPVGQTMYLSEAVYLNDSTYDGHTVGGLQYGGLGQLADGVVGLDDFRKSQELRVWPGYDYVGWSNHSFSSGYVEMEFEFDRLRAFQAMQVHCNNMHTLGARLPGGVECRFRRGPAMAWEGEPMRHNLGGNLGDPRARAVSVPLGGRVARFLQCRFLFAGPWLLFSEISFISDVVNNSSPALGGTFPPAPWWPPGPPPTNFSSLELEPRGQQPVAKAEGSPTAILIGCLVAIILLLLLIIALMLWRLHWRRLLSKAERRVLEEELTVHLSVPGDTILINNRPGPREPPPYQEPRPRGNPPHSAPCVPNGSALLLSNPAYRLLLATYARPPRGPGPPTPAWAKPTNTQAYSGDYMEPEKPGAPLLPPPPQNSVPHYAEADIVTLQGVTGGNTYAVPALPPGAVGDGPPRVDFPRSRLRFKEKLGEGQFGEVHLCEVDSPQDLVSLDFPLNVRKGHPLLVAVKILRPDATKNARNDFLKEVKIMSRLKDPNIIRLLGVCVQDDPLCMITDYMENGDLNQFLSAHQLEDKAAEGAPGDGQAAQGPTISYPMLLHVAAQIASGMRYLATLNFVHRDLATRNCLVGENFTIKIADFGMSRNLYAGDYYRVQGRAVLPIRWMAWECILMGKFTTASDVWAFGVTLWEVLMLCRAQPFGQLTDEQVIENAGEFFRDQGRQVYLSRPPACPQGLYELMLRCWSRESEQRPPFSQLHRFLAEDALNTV
pIC50: −log10 of the molar value.
Overview of reported pIC50 across a group of molecules:

Line Notation: Cc1ccc(C(=O)Nc2cccc(C(F)(F)F)c2)cc1CNc1cccnc1
Test Value: > 8.00
//
Line Notation: O=C(Nc1cccc(OC(F)(F)F)c1)c1ccc(F)c(CNc2cnc3[nH]ccc3c2)c1
Test Value: > 8.00

With those in mind, consider the next molecule.
Problem: For the molecule COc1ccc(NC(=O)c2ccc(C)c(CNc3cncnc3)c2)cc1C(F)(F)F , what pIC50 is on record?
Solution: > 8.00

====

# key: entry, value: Ki
# Study Target: DDR2 (Homo sapiens, UniProt Q16832)
# Sequence (Q16832 22-855): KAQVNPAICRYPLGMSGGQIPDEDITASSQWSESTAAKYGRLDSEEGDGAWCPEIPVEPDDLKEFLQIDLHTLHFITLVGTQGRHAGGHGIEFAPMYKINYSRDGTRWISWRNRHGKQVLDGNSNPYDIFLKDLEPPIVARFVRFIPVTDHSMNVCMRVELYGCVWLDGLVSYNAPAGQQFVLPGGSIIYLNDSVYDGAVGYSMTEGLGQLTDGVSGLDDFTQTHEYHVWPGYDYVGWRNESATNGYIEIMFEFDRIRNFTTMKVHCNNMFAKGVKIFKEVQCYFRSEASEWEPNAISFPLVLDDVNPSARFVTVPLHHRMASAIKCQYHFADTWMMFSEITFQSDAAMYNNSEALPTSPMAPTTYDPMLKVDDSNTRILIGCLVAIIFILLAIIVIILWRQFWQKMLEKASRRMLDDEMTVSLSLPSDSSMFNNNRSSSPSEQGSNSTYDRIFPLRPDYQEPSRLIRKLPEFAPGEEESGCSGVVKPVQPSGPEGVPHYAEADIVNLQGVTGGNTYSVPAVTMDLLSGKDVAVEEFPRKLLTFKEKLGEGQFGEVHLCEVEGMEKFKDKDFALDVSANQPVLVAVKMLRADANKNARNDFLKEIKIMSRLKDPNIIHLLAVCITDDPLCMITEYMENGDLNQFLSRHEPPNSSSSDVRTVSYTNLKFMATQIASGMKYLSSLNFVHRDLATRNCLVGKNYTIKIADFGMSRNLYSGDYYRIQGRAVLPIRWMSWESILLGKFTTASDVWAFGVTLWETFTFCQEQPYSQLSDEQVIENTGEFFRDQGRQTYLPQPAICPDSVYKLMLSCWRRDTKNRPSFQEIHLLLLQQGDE
# Assay Method Text: DDR2 binding assay (LanthaScreen Europium Kinase Binding assay)
# Design: purchased Life Technologies
# Test Conditions: 5 nM DDR2, 10 nM Kinase Tracer 178, 1 hour at room temperature; Ki from IC50 by Cheng-Prusoff

Compound: Cc1ccc(NC(=O)c2cc(CN3CCN(C)CC3)cc(C(F)(F)F)c2)cc1CNCc1cnc2[nH]ccc2c1
Study Target: DDR2 (Homo sapiens, UniProt Q16832)
Result Type: Ki
Test Value: 30 to 300 nM
--
Compound: COc1ccc(NC(=O)c2ccc(C)c(CNc3cncnc3)c2)cc1C(F)(F)F
Study Target: DDR2 (Homo sapiens, UniProt Q16832)
Result Type: Ki
Test Value: < 30 nM
--
Compound: Cc1ccc(NC(=O)c2cc(CN3CCN(C)CC3)cc(C(F)(F)F)c2)cc1CNCc1cncnc1
Study Target: DDR2 (Homo sapiens, UniProt Q16832)
Result Type: Ki
Test Value: 300 to 1000 nM
--
Compound: CCCc1ccc(C(=O)Nc2cc(CN3CCN(C)CC3)cc(C(F)(F)F)c2)cc1CNc1cncnc1
Study Target: DDR2 (Homo sapiens, UniProt Q16832)
Result Type: Ki
Test Value: 30 to 300 nM
--
Compound: CC(C)c1ccc(C(=O)Nc2cc(CN3CCN(C)CC3)cc(C(F)(F)F)c2)cc1CNC(=O)c1cnc2[nH]ccc2c1
Study Target: DDR2 (Homo sapiens, UniProt Q16832)
Result Type: Ki
Test Value: 300 to 1000 nM
--
Compound: Cc1cn(-c2cc(NC(=O)c3ccc(C)c(CNC(=O)c4cnc5ccccn45)c3)cc(C(F)(F)F)c2)cn1
Study Target: DDR2 (Homo sapiens, UniProt Q16832)
Result Type: Ki
Test Value: < 30 nM
--
Compound: CNC(=O)c1cc(NCc2cc(C(=O)Nc3cc(-n4cnc(C)c4)cc(C(F)(F)F)c3)ccc2C)ccn1
Study Target: DDR2 (Homo sapiens, UniProt Q16832)
Result Type: Ki
Test Value: < 30 nM
--
Compound: CCN(Cc1cc(C(=O)Nc2cc(-n3cnc(C)c3)cc(C(F)(F)F)c2)ccc1C)c1cnc2ccnn2c1
Study Target: DDR2 (Homo sapiens, UniProt Q16832)
Result Type: Ki
Test Value: 300 to 1000 nM

Problem: Data request, read-out Ki, for Cc1ccc(C(=O)Nc2cccc(C(F)(F)F)c2)cc1CNc1cncnc1
Solution: < 30 nM

Problem: # input compound: CCCc1ccc(C(=O)Nc2cc(CN3CCN(C)CC3)cc(C(F)(F)F)c2)cc1CNc1cnc2ccnn2c1 ; wanted: its Ki
Solution: 30 to 300 nM

Problem: Tell me the measured Ki of Cc1cn(-c2cc(NC(=O)c3ccc(C)c(CNc4ccc(C#N)cn4)c3)cc(C(F)(F)F)c2)cn1 , please.
Solution: 30 to 300 nM

Problem: Value lookup for Ki; key = CNC(=O)c1cc(NCc2cc(C(=O)Nc3cc(CN4CCN(C)CC4)cc(C(F)(F)F)c3)ccc2C)ccn1
Solution: < 30 nM

src = patent US20230227447A1
